Ref: ChEMBL document CHEMBL1961873

Provide the recorded inhibition for the entries that follow.
experimental system: Casein kinase I isoform alpha (Homo sapiens) (UniProt P48729);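 note: values are the mean percent inhibition of CK1a, averaged over measurements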
Sequence (P48729 2-337 limits assumed): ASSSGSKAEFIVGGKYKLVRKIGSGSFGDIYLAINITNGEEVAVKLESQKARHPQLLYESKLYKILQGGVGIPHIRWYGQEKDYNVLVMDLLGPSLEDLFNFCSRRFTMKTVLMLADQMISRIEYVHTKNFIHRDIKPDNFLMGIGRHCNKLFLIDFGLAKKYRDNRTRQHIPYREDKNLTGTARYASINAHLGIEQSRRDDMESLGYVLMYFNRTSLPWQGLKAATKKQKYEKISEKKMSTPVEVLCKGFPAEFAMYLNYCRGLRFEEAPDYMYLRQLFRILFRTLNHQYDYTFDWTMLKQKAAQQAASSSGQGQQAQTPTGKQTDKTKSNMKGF
measurement setup: at 0.1 µM
Numbers only, in %.

As a guide, the following entries are already answered.
compound: CCS(=O)(=O)c1ccc(OC)c(Nc2ncc(-c3cccc(-c4ccccc4F)c3)o2)c1
inhibition, %: -0.76
//
compound: CCc1cccc(CC)c1/C=C/c1cncc(C(=O)NC)c1
inhibition, %: 2.53
//
compound: COc1cc2ncn(-c3cc(OCCc4ccccc4)c(C(N)=O)s3)c2cc1OC
inhibition, %: 2.37
//
compound: COc1ccc2ncn(-c3cc(O[C@H](C)c4ccccc4Cl)c(C(N)=O)s3)c2c1
inhibition, %: 2.14
//
compound: FC(F)(F)c1cccc(Nc2nccc(-c3cnn4nc(-c5ccccc5)ccc34)n2)c1
inhibition, %: -0.33

Provide each entry's inhibition from the list below.
1. Clc1ccc(CNc2nccc(-c3cnn4ncccc34)n2)cc1
2. COc1cc(Nc2ncc3c(C)nc(-c4cccc(C(F)(F)F)c4)n3n2)cc(OC)c1OC

[2.75, 7.78]

---

experimental system: Serine/threonine-protein kinase D3 (Homo sapiens)
measurement setup: at 1 µM
property: inhibition (%)
Answers are plain numbers, in %.

As a guide, the following entries are already answered.
compound structure string: C[C@@H](Oc1cc(-n2cnc3ccc(OCC4CCN(C)CC4)cc32)sc1C(N)=O)c1ccccc1Cl
experimental system: Serine/threonine-protein kinase D3 (Homo sapiens)
readout unit: %
inhibition: 12
--
compound structure string: COc1ccc2cc(-c3c(-c4ccncc4)nc(-c4ccc(S(C)(=O)=O)cc4C)n3C)ccc2c1
experimental system: Serine/threonine-protein kinase D3 (Homo sapiens)
readout unit: %
inhibition: 4.2
--
compound structure string: CN(C)CCCNc1nccc(-c2c(-c3ccc(F)cc3)nn3cc(C(F)(F)F)ccc23)n1
experimental system: Serine/threonine-protein kinase D3 (Homo sapiens);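 note: values are mean inhibition figures against PRKD3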
readout unit: %
inhibition: -0.32

Provide each entry's inhibition from the list below.
1. Fc1ccc(-c2ncn(CCCN3CCOCC3)c2-c2ccncc2)cc1
2. N#Cc1ccc(Oc2nccc(-c3c(-c4ccc(F)cc4)ncn3C3CCNCC3)n2)cc1
3. CCc1nccc2c1nc(-c1nonc1N)n2CC
4. CS(=O)(=O)CCNCc1cc(-c2cc3c(Nc4ccc(OCc5cccc(F)c5)c(Cl)c4)ncnc3s2)cs1

1: 2.8; 2: 5.89; 3: 2.71; 4: 5.41

---

experimental system: Insulin receptor (Homo sapiens) (UniProt P06213)
Sequence (P06213 28-758 limits assumed): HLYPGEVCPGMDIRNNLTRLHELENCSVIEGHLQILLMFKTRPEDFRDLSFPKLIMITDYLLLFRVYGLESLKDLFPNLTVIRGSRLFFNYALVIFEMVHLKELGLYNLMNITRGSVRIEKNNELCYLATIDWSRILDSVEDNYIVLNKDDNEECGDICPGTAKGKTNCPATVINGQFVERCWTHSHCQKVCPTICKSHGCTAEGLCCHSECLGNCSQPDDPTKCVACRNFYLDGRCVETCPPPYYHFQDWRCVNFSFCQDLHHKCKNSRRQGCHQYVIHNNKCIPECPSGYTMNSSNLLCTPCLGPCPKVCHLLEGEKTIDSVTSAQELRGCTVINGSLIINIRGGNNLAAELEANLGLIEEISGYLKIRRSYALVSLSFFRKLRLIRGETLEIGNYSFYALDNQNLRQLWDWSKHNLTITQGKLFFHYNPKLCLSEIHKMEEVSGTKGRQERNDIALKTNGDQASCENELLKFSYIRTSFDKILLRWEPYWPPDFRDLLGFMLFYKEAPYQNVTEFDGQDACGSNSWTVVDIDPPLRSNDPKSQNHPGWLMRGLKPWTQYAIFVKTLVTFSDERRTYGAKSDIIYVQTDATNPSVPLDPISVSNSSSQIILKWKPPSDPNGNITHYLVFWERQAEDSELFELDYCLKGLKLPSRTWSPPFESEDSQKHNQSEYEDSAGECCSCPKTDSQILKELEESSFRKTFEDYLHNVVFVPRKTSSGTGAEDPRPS
Sequence (P06213 763-1382 limits assumed): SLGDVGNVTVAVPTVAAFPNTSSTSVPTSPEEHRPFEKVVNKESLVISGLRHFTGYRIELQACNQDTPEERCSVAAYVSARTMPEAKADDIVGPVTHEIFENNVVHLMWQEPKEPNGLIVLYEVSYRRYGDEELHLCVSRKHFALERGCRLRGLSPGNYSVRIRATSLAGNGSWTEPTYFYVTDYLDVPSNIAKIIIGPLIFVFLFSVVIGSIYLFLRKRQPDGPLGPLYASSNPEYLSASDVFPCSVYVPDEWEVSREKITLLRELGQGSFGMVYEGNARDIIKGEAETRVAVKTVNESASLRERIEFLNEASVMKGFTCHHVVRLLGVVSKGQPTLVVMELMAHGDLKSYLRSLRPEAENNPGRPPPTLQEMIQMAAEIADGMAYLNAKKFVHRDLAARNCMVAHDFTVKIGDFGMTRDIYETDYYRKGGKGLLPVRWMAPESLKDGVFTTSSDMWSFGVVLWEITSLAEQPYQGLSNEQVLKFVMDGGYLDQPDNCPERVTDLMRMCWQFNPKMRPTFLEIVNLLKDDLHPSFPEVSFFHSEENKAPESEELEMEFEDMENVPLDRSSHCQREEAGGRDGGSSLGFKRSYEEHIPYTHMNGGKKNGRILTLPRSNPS
measurement setup: at 0.1 µM
Provide the recorded inhibition for the entries that follow.
One number for each entry, in %.

As a guide, the following entries are already answered.
compound structure string: Cc1ccc(NC(=O)c2ccoc2)cc1-c1ccc(C(=O)NCC2CC2)cc1
experimental system: Insulin receptor (Homo sapiens) (UniProt P06213)
readout unit: %
inhibition: 1.81

compound structure string: COc1cc(C)c(N(C)C(=O)CN(C)C)cc1Nc1nc(Nc2cccc(F)c2C(N)=O)c2cc[nH]c2n1
experimental system: Insulin receptor (Homo sapiens) (UniProt P06213)
readout unit: %
inhibition: 52.5

compound structure string: CS(=O)(=O)CCNCc1cc(-c2cc3c(Nc4ccc(OCc5cccc(F)c5)c(Cl)c4)ncnc3s2)cs1
experimental system: Insulin receptor (Homo sapiens) (UniProt P06213);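 note: reported values are averages of replicate inhibition measurements against the insulin receptor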
readout unit: %
inhibition: 11.5

Provide each entry's inhibition from the list below.
1. COc1cc(Nc2ncc3c(C)nc(-c4cccc(C(F)(F)F)c4)n3n2)cc(OC)c1OC
2. NS(=O)(=O)c1ccc(Nc2cc(-c3ccc(O)c(F)c3)n[nH]2)cc1
3. O=C(Nc1n[nH]c2nc(-c3ccc(O)cc3)c(Br)cc12)C1CC1
4. COc1ccc(-c2ccc3c(NC(=O)C4CC4)n[nH]c3n2)cc1
5. COc1cc(Nc2ncc(-c3ccccc3)o2)cc(OC)c1OC

[5.92, -3.62, 7.55, 1.07, 4.48]

Provide each entry's inhibition from the list below.
1. FC(F)(F)c1cccc(Nc2nccc(-c3cnn4nc(-c5ccccc5)ccc34)n2)c1
2. COc1ccc(C2=C(N3CCc4ccccc43)C(=O)NC2=O)cc1
3. CN(C)c1ccc2c(c1)/C(=C/Nc1ccc(S(N)(=O)=O)cc1)C(=O)N2

[-2.61, 4.83, 3.88]

Provide each entry's inhibition from the list below.
1. COc1cc2ncn(-c3cc(OCc4ccccc4C(F)(F)F)c(C(C)=O)s3)c2cc1OC
2. O=C(Nc1n[nH]c2cc(-c3cc(F)ccc3F)ccc12)C1CC1

1: -1.39; 2: 7.13

Provide each entry's inhibition from the list below.
1. Fc1ccc(-c2c(-c3ccncc3)nc3n2CCS3)cc1
2. Fc1ccc(-c2nc3n(c2-c2ccncc2)CCS3)cc1

[5.99, 7.27]

Need inhibition of "CN1CCN(CCCNc2nc3ccc(Oc4ccc(NC(=O)Nc5cc(C(F)(F)F)ccc5F)cc4)cc3[nH]2)CC1" , thanks.
-3.22

---

experimental system: Activated CDC42 kinase 1 (Homo sapiens) (UniProt Q07912)
Sequence (Q07912 whole entry, looked up): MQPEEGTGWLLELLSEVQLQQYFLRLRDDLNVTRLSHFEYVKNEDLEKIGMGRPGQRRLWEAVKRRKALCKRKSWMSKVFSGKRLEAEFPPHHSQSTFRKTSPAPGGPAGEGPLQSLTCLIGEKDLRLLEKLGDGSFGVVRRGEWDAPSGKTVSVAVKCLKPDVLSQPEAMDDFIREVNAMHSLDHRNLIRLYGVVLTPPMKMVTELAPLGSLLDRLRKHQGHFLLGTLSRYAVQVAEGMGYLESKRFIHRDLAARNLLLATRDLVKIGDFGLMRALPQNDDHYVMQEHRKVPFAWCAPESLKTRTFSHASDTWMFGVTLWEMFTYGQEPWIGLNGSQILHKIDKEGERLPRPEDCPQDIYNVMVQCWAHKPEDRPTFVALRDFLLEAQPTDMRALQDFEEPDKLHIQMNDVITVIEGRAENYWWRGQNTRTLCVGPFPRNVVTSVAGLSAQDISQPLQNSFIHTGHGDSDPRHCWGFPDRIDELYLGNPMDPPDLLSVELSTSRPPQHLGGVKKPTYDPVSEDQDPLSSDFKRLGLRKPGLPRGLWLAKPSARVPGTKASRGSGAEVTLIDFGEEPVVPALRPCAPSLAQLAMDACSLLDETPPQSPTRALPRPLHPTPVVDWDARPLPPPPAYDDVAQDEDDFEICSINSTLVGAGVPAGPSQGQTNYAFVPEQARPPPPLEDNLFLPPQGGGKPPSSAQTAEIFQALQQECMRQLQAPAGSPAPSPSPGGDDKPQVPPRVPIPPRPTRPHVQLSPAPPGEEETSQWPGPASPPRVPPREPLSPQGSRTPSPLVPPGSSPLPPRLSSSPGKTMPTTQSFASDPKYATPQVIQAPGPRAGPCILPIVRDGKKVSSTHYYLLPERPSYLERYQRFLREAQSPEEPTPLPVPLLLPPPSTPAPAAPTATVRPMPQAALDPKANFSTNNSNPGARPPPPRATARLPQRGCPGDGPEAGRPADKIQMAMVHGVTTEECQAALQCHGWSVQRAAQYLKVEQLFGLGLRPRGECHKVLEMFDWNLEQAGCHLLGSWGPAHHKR
measurement setup: at 0.1 µM
Provide the recorded inhibition for the entries that follow.
One number for each entry, in %.

compound structure string: O=C(Nc1n[nH]c2cc(-c3cc(F)ccc3F)ccc12)C1CC1
experimental system: Activated CDC42 kinase 1 (Homo sapiens) (UniProt Q07912);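 note: values are mean inhibition of TNK2, from the GSK PKIS screening dataset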
inhibition (%): -0.01

Provide each entry's inhibition from the list below.
1. c1ccc(-c2n[nH]cc2-c2ccnc(-c3ccc(OCCN4CCOCC4)cc3)c2)nc1
2. COc1cc(N2CCN(C(C)C)CC2)ccc1Nc1nc(Nc2ccc(F)cc2C(=O)NC[C@@H](O)CO)c2cc[nH]c2n1

1: 5.48; 2: 3.26

Provide each entry's inhibition from the list below.
1. COc1cc(Nc2ncc(-c3ccccc3)o2)cc(OC)c1OC
2. NS(=O)(=O)c1ccc(Nc2cc(-c3ccc(O)c(F)c3)n[nH]2)cc1
3. NC(=O)Cc1ccccc1Oc1nccc(-c2c(-c3ccc(F)cc3)ncn2C2CCNCC2)n1
4. Fc1ccc(-c2ncn(C3CCNCC3)c2-c2ccnc(Oc3ccc(F)c(F)c3)n2)cc1
5. C#Cc1cccc(Nc2ncnc3ccc(OCCCCNCCS(C)(=O)=O)cc23)c1
6. Clc1ccc(CNc2nccc(-c3cnn4ncccc34)n2)cc1

[0, -1.31, 1.43, -0.47, 2.03, 0.35]

Provide each entry's inhibition from the list below.
1. Cc1ccc(NC(=O)c2ccoc2)cc1-c1ccc(C(=O)NCC2CC2)cc1
2. CN(C)CCOc1ccc(-c2cc(-c3ccc4c(c3)CCC4=NO)c(-c3ccncc3)o2)cc1

1: 0.62; 2: -1.03

---

experimental system: cGMP-dependent protein kinase 2 (Homo sapiens)
measurement setup: at 1 µM
Decision: inhibition >= 3% yields 1, all other cases yield -1.

Example results:
compound structure string: CN(C)CCOc1ccc(-c2cc(-c3ccc4c(c3)CCC4=NO)c(-c3ccncc3)o2)cc1
experimental system: cGMP-dependent protein kinase 2 (Homo sapiens)
class assignment: 1
//
compound structure string: O=C(Nc1n[nH]c2cc(-c3ccccc3)ccc12)C1CC1
experimental system: cGMP-dependent protein kinase 2 (Homo sapiens);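 note: mean inhibition of PRKG2 from the GSK PKIS screen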
class assignment: -1

Please check the record "CNC(=O)c1cncc(/C=C/c2c(C)cccc2C)c1" and state if its inhibition is at or above 3%.
-1

Please check the record "C[C@@H](Oc1cc(-n2cnc3ccc(OC4CCN(C)CC4)cc32)sc1C(N)=O)c1ccccc1Cl" and state if its inhibition is at or above 3%.
1

---

Provide the recorded inhibition for the entries that follow.
experimental system: Non-receptor tyrosine-protein kinase TNK1 (Homo sapiens) (UniProt Q13470);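 note: reported values are mean inhibition figures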
Sequence (whole entry): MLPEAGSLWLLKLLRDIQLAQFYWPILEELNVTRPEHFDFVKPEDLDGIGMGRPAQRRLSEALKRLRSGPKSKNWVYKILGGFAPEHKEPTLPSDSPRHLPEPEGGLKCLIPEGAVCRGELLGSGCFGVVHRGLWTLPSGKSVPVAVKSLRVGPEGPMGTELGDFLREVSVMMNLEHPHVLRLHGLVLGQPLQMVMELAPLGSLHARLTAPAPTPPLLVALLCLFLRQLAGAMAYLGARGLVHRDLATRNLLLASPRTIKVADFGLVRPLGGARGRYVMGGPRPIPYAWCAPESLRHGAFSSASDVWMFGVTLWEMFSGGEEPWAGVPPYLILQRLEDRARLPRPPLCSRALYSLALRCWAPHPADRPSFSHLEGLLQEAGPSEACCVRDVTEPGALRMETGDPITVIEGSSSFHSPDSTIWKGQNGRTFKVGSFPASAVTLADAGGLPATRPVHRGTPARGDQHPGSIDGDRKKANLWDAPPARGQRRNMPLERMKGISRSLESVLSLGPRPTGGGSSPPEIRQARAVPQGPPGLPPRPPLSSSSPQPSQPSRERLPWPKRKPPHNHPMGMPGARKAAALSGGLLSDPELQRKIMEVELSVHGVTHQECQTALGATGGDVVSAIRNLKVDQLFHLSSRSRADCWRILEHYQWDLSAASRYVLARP
measurement setup: at 0.1 µM

As a guide, the following entries are already answered.
compound structure string: O=C(NCC1CC1)c1ccc(-c2cccc(C(=O)NC3CC3)c2)cc1
assay value: 1.89%
--
compound structure string: COc1cc2ncn(-c3cc(OCc4cccs4)c(C(N)=O)s3)c2cc1OC
assay value: 10.4%
--
compound structure string: C#Cc1cccc(Nc2ncnc3ccc(OCCCCNCCS(C)(=O)=O)cc23)c1
assay value: 2.31%

Proceeding to the next compound to report its inhibition.
Need inhibition of "COc1cc(Nc2ncc3c(C)nc(-c4cccc(C(F)(F)F)c4)n3n2)cc(OC)c1OC" , thanks.
15.2%
